Test system: MS2 coat protein
Experiment: apparent KD of MS2 coat protein; higher = weaker reporter binding
Conditions: Eterna round: R107; input ligand: theophylline 20 uM
metric name: apparent KD of MS2 coat protein

Please review the following examples before continuing.
{"sequence chain": "AGACAUGAGGAUCACCCAUGUAGUAUGGAUACCAGAUCCAGAUUUAUCCCUUGGCAGCUGUGGUACAGCGUUGCAUCGCUCCUAG [Exclusion - Theophylline A (Freestyle 13)]", "apparent KD of MS2 coat protein": "44.5 nM"}
{"sequence chain": "ACAUGAGCAUCAGCCUUGUAGGAACUAGAUACCAGCCCAACAUGAGGCCCUUGGCAGCUGACAACAUGAGGAUCACCCAUGUCAC [Exclusion - Theophylline A #1]", "apparent KD of MS2 coat protein": "36.3 nM"}
{"sequence chain": "CGGUAACCACAUGAGGAUCACCCAUGUGAAGGAGCGGCGAAUAAGCCAGGUAGGUCGCGCAUGAAUAAAUCAUGUUGGUGCCGAA [XArg-A 16 NuPack]", "apparent KD of MS2 coat protein": "121 nM"}
{"sequence chain": "AUGCAUAGCGGAAGGAGCGCAAUAGAAUGACAUGAGGAUCACCCAUGUAUGUGAUGUGGGUUGCAGGUAGGUCGCCGAGUGGUAU [Exclusion - Arginine B (Freestyle 1)]", "apparent KD of MS2 coat protein": "98.8 nM"}

Field request: apparent KD of MS2 coat protein | item: CGGUCGGUCGGCCGGUGAUUAUGGGAUGAAGGAGCGUGGGAAGCUACAGGUAGGUCGCAUCCGAAACAUCACGAUCACGGAUGUU [SSArg A #26Alt-Ms2 Mod]
134 nM

Which apparent KD of MS2 coat protein is reported for this sequence? CAUCAUGGGCUUGGACAAAUUGUGCUUGAUACCAGAAAUCACCGGUUCCCUUGGCAGCAACCCACAUGAGGAUCACCCAUGUGGA [theeternabot_exclusion_MS2_Theo_A_4]
20.1 nM

Look up apparent KD of MS2 coat protein: AUGCCUAGUGGAAGGAGCGAGGGUCCUCUCAACAUGAGGAUCACCCAUGUUCUUUUGCACCCUCAGGUAGGUCGCCAUUGGGACA [Veanaris]
92.4 nM

Look at this sequence and give its reported apparent KD of MS2 coat protein. AAGCGGGCGACGGCCGCCACUUGCCUGUAAUUAGAGAAGGCACAUGAGGAUCACCCAUGUCCCGCAAGGACCGGGUUGCCUCACU [Ditiraorce]
484 nM

Please give the measured apparent KD of MS2 coat protein for this sequence: ACUACAUGAGGAUCACCCAUGUGUACUGAAGGAGCGGCGGAAACGCCAGGUAGGUCGCAGUACACCUCAACCAGCGGUCCUAAGU [EAA NP+V+V2 #1]
85.9 nM

apparent KD of MS2 coat protein for AGCAUGUUAUCAGAUACCAGACAUCUUUUAAAACAUAUUACAUGAGGAUCACCCAUGUUGGUCCCUUGGCAGCUGAAAUAUUUCA [JR_Nu_SSTheophyB_Sub024] ?
223 nM

// returns reported apparent KD of MS2 coat protein for input UGGUACAUGAGGAUCACCCAUGUCCUCAUCCGAGGACCGGUACGGCCGCCACUCGAAAUUGCGAUCGGCACAAAACAAAUGCUUG [theeternabot_sameState_MS2_Trp_A_39]
205 nM
